Give measured polydispersity for each item. Keep answers brief.
- assay.remarks: Lipid nanoparticle size and polydispersity by dynamic light scattering
- Format: physicochemical
- recorded.conditions: LNP of lipid/DSPC/cholesterol/PEG-lipid 50:10:38.5:1.5 encapsulating hEPO mRNA
Answers are plain numbers.

Field: example entries. Status: answers known.
CCCCCCCCC(CCCCCCCC)COC(=O)CCCCCN(CCO)CCN(CCCCCOC(=O)OCC(CCCCCCCC)CCCCCCCC)C1CCCCC1 = 0.267
CCCCCCCCC(CCCCCCCC)COC(=O)CCCCCN(CCO)CCN(CCCCCC(=O)OCC(CCCCCCCC)CCCCCCCC)Cc1ccncc1 = 0.037
CCCCCCCCC(CCCCCCCC)COC(=O)CCCCCN(CCCCN(CCO)CCCCC(COC(=O)CCCCCCC)COC(=O)CCCCCCC)C1CCC1 = 0.15
CCCCCCCCC(CCCCCCCC)COC(=O)CCCCCN(CCNc1c(NC)c(=O)c1=O)CCN(CCCCCC(=O)OCC(CCCCCCCC)CCCCCCCC)C1CCC1 = 0.051
CCCCCCCC(=O)OCC(COCCN(CCO)CCN(CCOCC(COC(=O)CCCCCCC)COC(=O)CCCCCCC)C1CCCCC1)COC(=O)CCCCCCC = 0.041

Could you report polydispersity for every entry in the following list?
1. CCCCCCCCC(CCCCCC)CNC(=O)CCCCCN(CC=C(C)C)CCN(CCO)CCCCC1COC(C(CCCCCC)CCCCCCCC)OC1 (stereo not shown)
2. CCCCCCCCOC(CCCCCN(CCO)CCN(CCCCCC(=O)OCC(CCCCCC)CCCCCCCC)C1CCC1)OCCCCCCCC (stereo not shown)
3. CCCCCCCCC(CCCCCCCC)COC(=O)CCOCCN(CC=C(C)C)CCN(CCO)CCOCCC(=O)OCC(CCCCCCCC)CCCCCCCC
4. CCCCCCCCCCCOC(=O)CCCCCN(CCN(CCO)CCCCCC(=O)OCC(CCCCCCCC)CCCCCCCC)C1CC1
5. CCCCCCCCC(CCCCCCCC)CNC(=O)CCCCCN(CCO)CCN(CCCCCC(=O)OCC(CCCCCCCC)CCCCCCCC)C1CCCCC1
6. CCCCCCCCCCCC(=O)OCCCCCN(CCN(CCO)CCOCCOC(=O)CC(CCCCCCCC)CCCCCCCC)C1CCCCC1

1. 0.076
2. 0.028
3. 0.043
4. 0.069
5. 0.039
6. 0.042

Please give polydispersity for each item listed below.
1. CCCCCCCC(=O)OCC(CCCCN(CCO)CCN(CCCCC(COC(=O)CCCCCCC)COC(=O)CCCCCCC)C1CCCCCC1)COC(=O)CCCCCCC
2. CCCCCCCCC(CCCCCC)COC(=O)CCCCCN(CCO)CCN(CCCCC(COC(=O)CCCCCCC)COC(=O)CCCCCCC)C1CCCCCC1 (stereo not shown)

[0.096, 0.055]
